# Test system: Zika virus NS2B-NS3 protease (linked)
# assay notes: 384 well plate NINDS AMC confirmatory qHTS for Zika virus inhibitors (AID 1347163); also: nearly all actives have a fitted effect of over 50% in size
# test conditions: Recombinant NS2B-NS3 protease, Ac-VKTGKR-AMC fluorescence; series mostly up to 1 mM
Results filed as inconclusive are left out. The source made the active and inactive calls. Calls follow the shape of the dose curve; as a rule, active = well fitted inhibition curve with a large enough effect; inconclusive = small, poorly fitted or top-dose-only effect; inactive = no such curve, though single readings can be large or run the other way.
Outcome codes: True = active, False = inactive

* Clc1cc(OCc2nnc3sc(Cc4ccccc4)nn23)c(Cl)cc1OCc1nnc2sc(Cc3ccccc3)nn12 | True
* N#CC(C#N)=C(N)/C(C#N)=C/c1cc(O)c(O)c(O)c1 | True
* COc1cccc(C(=O)Nc2ccc(C(=O)OCc3cc(=O)n4nc(C5CC5)sc4n3)cc2)c1 | False
* Cc1ccc(Nc2nnc(-c3ccc(C)c(S(=O)(=O)NCc4nc5ccccc5[nH]4)c3)c3ccccc23)cc1 | False
* CC(C)CN1CC(COc2ccc3ccccc3c2)Oc2ccnc(-c3ccc(OCC(=O)O)cc3)c2C1=O (centres undefined) | True
* Nc1c(S(=O)(=O)O)cc(Nc2ccc(Nc3nc(Cl)nc(Nc4ccc(S(=O)(=O)O)cc4)n3)c(S(=O)(=O)O)c2)c2c1C(=O)c1ccccc1C2=O | True
* CCOC(=O)c1ccc(NC(=O)CSc2nc(-c3ccc(F)cc3)cc(C(F)(F)F)c2C#N)cc1 | False
* Cc1ccc(NC(=O)c2ccc3c(O)c(S(=O)(=O)c4ccc(Cl)cc4)c(=O)[nH]c3c2)cc1 | True
* CC(C)=CCCC1(C)C=Cc2c(O)c3c(c(CC=C(C)C)c2O1)OC12C(=CCCC1C(C)(C)O[C@@]2(C/C=C(\C)C(=O)O)C(=O)O)C3=O (some centres undefined) | True
* O=C(Nc1c(C(=O)O)oc2ccccc12)c1ccc(C(F)(F)F)cc1 | True
* O=C(O[C@@H]1Cc2c(O)cc(O)cc2OC1c1ccc(O)c(O)c1)c1cc(O)c(O)c(O)c1 (some centres undefined) | True
* O=C(O)COc1ccc(-c2nccc3c2C(=O)N(Cc2cccc(C(F)(F)F)c2)CC(CNC(=O)c2cccc(Cl)c2)O3)cc1 (centres undefined) | False
* O=[S+]([O-])([O-])c1ccc2c(c1)cc([S+](=O)([O-])[O-])c1nn(-c3ccc(/C=C/c4ccc(-n5nc6c([S+](=O)([O-])[O-])cc7cc([S+](=O)([O-])[O-])ccc7c6n5)cc4[S+](=O)([O-])[O-])c([S+](=O)([O-])[O-])c3)nc12 | False
* O=C(O)c1cccc(-c2ccc(OC(F)(F)F)cc2)c1 | False
* CCS(=O)(=O)c1cccc(C(=O)Nc2ccc(-c3nc4ccccc4s3)c(O)c2)c1 | False
* O=C(O)c1c(-c2ccccc2)oc2ccc(OCc3ccc(Cl)c(Cl)c3)cc12 | False
* O=C(Nc1cccc(C(=O)OCc2cc(=O)n3nc(C4CC4)sc3n2)c1)c1ccc(F)cc1 | True
* COc1ccc(-c2cc(=O)c3c(O)cc(O)c(-c4cc(-c5cc(=O)c6c(O)cc(O)cc6o5)ccc4OC)c3o2)cc1 | True
* CCCCCCc1cc2cc(-c3cn4c(n3)sc3cc(OC)ccc34)c(=O)oc2cc1O | False
* CN(Cc1ccc(C(=O)O)cc1)c1ccc(OCc2c(-c3c(Cl)cccc3Cl)noc2C2CC2)nc1C(F)(F)F | True
* N#C/C(=C\c1ccc(-c2ccc(Cl)c(C(=O)O)c2)o1)c1nc2ccccc2[nH]1 | True
* Cc1cccc(C(=O)Nc2ccc(C(=O)OCc3cc(=O)n4nc(C5CC5)sc4n3)cc2)c1 | False
* CC(C)c1ccc(NC(=O)c2ccc3c(O)c(S(=O)(=O)c4ccccc4)c(=O)[nH]c3c2)cc1 | True
* O=C(O)Cn1ccc2cc(OCc3cccc(-c4cccc(C(F)(F)F)c4)c3)cnc21 | True
* O=c1oc2ccccc2cc1-c1nnc(Nc2ccc(Cl)cc2Cl)s1 | True
* O=C(Nc1ccccc1)c1ccc2c(O)c(S(=O)(=O)c3ccc(Cl)cc3)c(=O)[nH]c2c1 | True
* O=C(O)c1ccc(C2Nc3ccccc3-c3nnc(SCc4ccc(Cl)cc4)nc3O2)cc1 (centres undefined) | True
* O=c1c(O)c(Br)ccc2c(Br)c(O)c(O)c(O)c12 | True
* O=C(O)c1c(Sc2ccccc2)c2cc(Cl)ccc2n1Cc1ccc(Cl)cc1 | True
* Cc1ccc2nc(NS(=O)(=O)c3ccc(Cl)cc3)c(Nc3ccc(C(=O)O)cc3)nc2c1 | True
* CCN(Cc1cccc(S(=O)(=O)O)c1)c1ccc(C(=C2C=CC(=[N+](CC)Cc3cccc(S(=O)(=O)O)c3)C=C2)c2ccccc2S(=O)(=O)[O-])cc1 | True
* O=C1c2c(O)ccc([N+](=O)[O-])c2C(=O)c2c([N+](=O)[O-])ccc(O)c21 | True
* CCOC(=O)c1ccc(Nc2nc3ccccc3nc2NS(=O)(=O)c2ccc(Cl)cc2)cc1 | False
* COc1cc(C2Nc3ccccc3-c3nnc(SCc4ccc(Cl)cc4)nc3O2)ccc1OCC(=O)O (centres undefined) | True
